target: Atrial natriuretic peptide receptor 1 (Homo sapiens); test: Natriuretic polypeptide receptor (hNpr1) antagonism - Pilot CMLD screen (AID 1347052); conditions: HEK293 hNpr1 GloSensor cGMP luminescence, ANP-stimulated; series mostly up to 9.22 µM;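 note: cGMP level read as GloSensor luciferase luminescence after agonist stimulation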
Results filed as inconclusive are left out. Calls of active or inactive are those of the source. Calls come from the whole dose curve.
Outcome codes: yes for active, no for inactive

- C=CCNC(=O)N1C2=NC(C(=O)OC)=C(C(=O)OC)[C@@H]3N(C)c4ccccc4[C@]23C[C@H]1CO: no
- CC(C)(C)c1ccc(O[C@@H]2[C@H](O)CO[C@H]2C=CC#Cc2ccccc2)cc1: no
- FC(F)(F)c1ccc(-c2nc(-c3ccccc3)oc2NCc2ccccc2)cc1: no
- CCc1cc2c(nc1CC)CCN(CCC(C)=NO[C@H](C)c1cn([C@H](CO)Cc3ccccc3)nn1)C2: no
- CC#CCN1c2ccccc2[C@]23CCC(=O)N(Cc4cccc(C(F)(F)F)c4)C2=NC(C(=O)OC)=C(C(=O)OC)[C@H]13: no
- CCN1C(=NCc2ccc(OC)cc2)NC(c2cccc(F)c2)C(C(=O)OC)=C1C (stereo not drawn): no
- CCOC(=O)OC[C@H]1O[C@H](C#Cc2ccc(C)cc2C)C=C[C@H]1OC(=O)OCC: no
- COc1cccc([C@H]2Oc3ccc(OC)cc3C(=NO[C@@H](C)CN3CCCCc4nc(C)c(C)cc43)[C@H]2O)c1: no
- C=C[C@@]1(C)CCC=C2C(=O)CCC[C@H]21: no
- C=CCN=C1NC(c2cccc(F)c2)C(C(=O)OC)=C(C)N1Cc1ccccc1 (stereo not drawn): no
- COc1cccc([C@@H]2Oc3ccc(OC)cc3C(=O)[C@@H]2OC(=O)N[C@H]2CCCc3ccccc32)c1: no
- C=CC[C@@](C(C)=O)(C(=O)OC)[C@@H](NC(=O)OC(C)(C)C)c1ccccc1: no
- CCN1C(=O)N(C)C(c2ccccc2)C(C(C)=O)=C1C (stereo not drawn): no
- CC[C@H](C)[C@@H](NC(=O)O[C@@H]1C(=O)c2cc(OC)ccc2O[C@H]1c1ccc(OC)c(Br)c1)C(=O)OC: no
- COC(=O)CCC(=O)OC1(C)C(=O)C=C2C=C(C3CC3)N(Cc3ccc4c(c3)OCO4)C=C2C1=O (stereo not drawn): no
- CC(CCC#N)[N+](=O)[O-] (stereo not drawn): yes
- COc1cccc(C(CC2=CCCCC2)NC(=O)C(F)(F)F)c1 (stereo not drawn): no
- CC(=O)C1=C(C)N(Cc2ccccc2)C(=O)NC1c1cccs1 (stereo not drawn): no
- CCCCCCCC1=CC2=CC(=O)C(C)(O)C(=O)C2=CN1CCCC (stereo not drawn): no
- COc1ccc2c(c1)C[C@@H](C)O[C@]21C(=O)Nc2ccccc21: no
- CCN1C(=O)NC(c2cccc(C(F)(F)F)c2)C(C(C)=O)=C1C (stereo not drawn): no
- COC(=O)[C@@H]1C=C[C@H](C)[C@H](CCOc2ccccc2)O1: no
- C[C@H]1CC[C@H]2C(=O)N(Cc3cccc([N+](=O)[O-])c3)C[C@H](O)CN2[C@H]1c1cccc(Br)c1: no
- COC(=O)C[C@H]1c2ccccc2[C@@H]2C(=C[C@@H](C)[C@H]3C(=O)NC(=O)[C@H]32)N1C(=O)OC: no
- C=CC[C@@H]1C=C[C@H](ON=C2c3cc(OC)ccc3O[C@H](c3cccc(OC)c3)[C@@H]2O)[C@H](CO)O1: no
- C[C@H]1C=CCC(=O)NCc2cccc(c2)CNC(=O)N[C@@H]1c1ccccc1: no
- CN1c2ccccc2[C@@]2(O)C(=O)[C@@]1(C)[C@@H]1c3ccccc3C[C@H]12: no
- CCCCCCCc1cc2c(cn1)C(=O)C(C)(OC(C)=O)C(O)=C2Cl (stereo not drawn): no
- C=CCOC(=O)N[C@@H](c1ccccc1)[C@@H](C)[N+](=O)[O-]: no
- CC(C)C(=O)NC(=O)[C@@H]1CCCN1C(=O)C=Cc1ccccc1: no
- CCN1C(N(C)CCc2ccc(Br)cc2)=NC(c2ccccc2)C(C(=O)OC)=C1C (stereo not drawn): no
- COC(=O)C(C(=O)OC)C1OC23CN(S(=O)(=O)c4ccc(C)cc4)C=CC2(C)C3c2ccccc21 (stereo not drawn): no
- C=CCN=C1NC(c2cccc(C(F)(F)F)c2)C(C(=O)OC)=C(C)N1Cc1ccccc1 (stereo not drawn): no
- C=CCCCN1C(=O)NC(c2ccccc2)C(C(=O)OC)=C1C (stereo not drawn): no
- C=C(C)CCN1C(=O)NC(c2cccc(C(F)(F)F)c2)C(C(=O)OC)=C1C (stereo not drawn): no
- CC1=C[C@@H](COCc2ccccc2)O[C@@]2(C1)C(=O)Nc1cccc(Br)c12: no
- COc1ccc(-c2nc3c(c4c2C[C@H](c2ccccc2)OC4)CN(C(=O)c2ccco2)CC3)c(C)c1: no
- COC(=O)C1=C(C(=O)OC)[C@@H]2N(C)c3ccccc3[C@@]23CCC(=O)N(CC(C)C)C3=N1: no
